target: PDGFRβ (Homo sapiens (Human), UniProt P09619); test: Inhibition of PDGFRβ kinase activity (HTRF KinEASE-TK); conditions: biochemical, HTRF KinEASE-TK
Sequence (P09619 33-1106): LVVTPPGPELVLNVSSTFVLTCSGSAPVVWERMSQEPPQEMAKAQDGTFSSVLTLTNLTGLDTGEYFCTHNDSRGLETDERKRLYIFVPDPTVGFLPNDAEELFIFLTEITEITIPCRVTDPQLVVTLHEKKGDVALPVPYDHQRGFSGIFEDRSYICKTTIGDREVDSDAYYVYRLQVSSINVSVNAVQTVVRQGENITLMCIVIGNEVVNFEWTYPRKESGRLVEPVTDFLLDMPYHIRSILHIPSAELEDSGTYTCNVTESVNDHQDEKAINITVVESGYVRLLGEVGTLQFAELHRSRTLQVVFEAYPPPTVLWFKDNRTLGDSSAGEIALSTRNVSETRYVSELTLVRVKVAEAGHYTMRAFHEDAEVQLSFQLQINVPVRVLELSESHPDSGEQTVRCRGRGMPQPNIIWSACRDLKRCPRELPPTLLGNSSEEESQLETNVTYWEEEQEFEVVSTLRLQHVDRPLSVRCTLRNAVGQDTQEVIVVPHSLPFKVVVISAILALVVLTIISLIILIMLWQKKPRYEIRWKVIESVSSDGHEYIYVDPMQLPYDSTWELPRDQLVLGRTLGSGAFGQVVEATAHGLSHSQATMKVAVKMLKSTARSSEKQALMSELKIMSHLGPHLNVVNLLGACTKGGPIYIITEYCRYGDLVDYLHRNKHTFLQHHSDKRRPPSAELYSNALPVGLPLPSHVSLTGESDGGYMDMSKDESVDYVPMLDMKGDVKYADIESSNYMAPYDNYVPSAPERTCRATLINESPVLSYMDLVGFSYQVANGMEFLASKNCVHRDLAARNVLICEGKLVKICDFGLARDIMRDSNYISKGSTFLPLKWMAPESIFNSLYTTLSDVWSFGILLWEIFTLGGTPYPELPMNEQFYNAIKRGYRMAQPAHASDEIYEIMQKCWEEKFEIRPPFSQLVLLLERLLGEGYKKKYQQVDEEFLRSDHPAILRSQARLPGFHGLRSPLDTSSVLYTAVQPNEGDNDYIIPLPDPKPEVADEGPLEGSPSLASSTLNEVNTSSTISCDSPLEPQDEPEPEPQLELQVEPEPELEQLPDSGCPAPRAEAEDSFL
pIC50: −log10 of the molar value.
pIC50 values for the molecules below.

Request: Query (molecule): Cc1cc(F)c(C(=O)Nc2ccc(C3(C#N)CC3)nn2)cc1NC(=O)c1cnc(N)s1 ; field requested: pIC50
Result: 6.00 to 7.00

Request: Query (molecule): Cc1cc(F)c(C(=O)NCC(F)(F)F)cc1NC(=O)c1cnc(N)s1 ; field requested: pIC50
Result: < 6.00

Request: Query (molecule): Cc1ncc(C(=O)Nc2cc(C(=O)Nc3cnc(N4CC[C@@H](F)C4)cn3)c(F)cc2C)s1 ; field requested: pIC50
Result: < 6.00
